Tested on: tubulin acetylation
Assay: Tubulin acetylation in RPMI-8226 cells by quantitative Western blotting
Format: cell-based
Details: read-out: IC50 tubulin deacetylation (relative tubulin acetylation)

cpd.smiles	scale.unit	IC50
CC(/C=C/C(=O)NO)=C\[C@@H](C)C(=O)c1ccc(N(C)C)cc1	nM	140

* * *

Measured EC50 of individual entries
Molecular target: HDAC6 (Homo sapiens)
Construct: HDAC6 2-1215 Open Biosystems; Strep-FLAG-HALO (N); made in house; host or cells: HEK293/T17
Sequence (Q9UBN7 2-1215): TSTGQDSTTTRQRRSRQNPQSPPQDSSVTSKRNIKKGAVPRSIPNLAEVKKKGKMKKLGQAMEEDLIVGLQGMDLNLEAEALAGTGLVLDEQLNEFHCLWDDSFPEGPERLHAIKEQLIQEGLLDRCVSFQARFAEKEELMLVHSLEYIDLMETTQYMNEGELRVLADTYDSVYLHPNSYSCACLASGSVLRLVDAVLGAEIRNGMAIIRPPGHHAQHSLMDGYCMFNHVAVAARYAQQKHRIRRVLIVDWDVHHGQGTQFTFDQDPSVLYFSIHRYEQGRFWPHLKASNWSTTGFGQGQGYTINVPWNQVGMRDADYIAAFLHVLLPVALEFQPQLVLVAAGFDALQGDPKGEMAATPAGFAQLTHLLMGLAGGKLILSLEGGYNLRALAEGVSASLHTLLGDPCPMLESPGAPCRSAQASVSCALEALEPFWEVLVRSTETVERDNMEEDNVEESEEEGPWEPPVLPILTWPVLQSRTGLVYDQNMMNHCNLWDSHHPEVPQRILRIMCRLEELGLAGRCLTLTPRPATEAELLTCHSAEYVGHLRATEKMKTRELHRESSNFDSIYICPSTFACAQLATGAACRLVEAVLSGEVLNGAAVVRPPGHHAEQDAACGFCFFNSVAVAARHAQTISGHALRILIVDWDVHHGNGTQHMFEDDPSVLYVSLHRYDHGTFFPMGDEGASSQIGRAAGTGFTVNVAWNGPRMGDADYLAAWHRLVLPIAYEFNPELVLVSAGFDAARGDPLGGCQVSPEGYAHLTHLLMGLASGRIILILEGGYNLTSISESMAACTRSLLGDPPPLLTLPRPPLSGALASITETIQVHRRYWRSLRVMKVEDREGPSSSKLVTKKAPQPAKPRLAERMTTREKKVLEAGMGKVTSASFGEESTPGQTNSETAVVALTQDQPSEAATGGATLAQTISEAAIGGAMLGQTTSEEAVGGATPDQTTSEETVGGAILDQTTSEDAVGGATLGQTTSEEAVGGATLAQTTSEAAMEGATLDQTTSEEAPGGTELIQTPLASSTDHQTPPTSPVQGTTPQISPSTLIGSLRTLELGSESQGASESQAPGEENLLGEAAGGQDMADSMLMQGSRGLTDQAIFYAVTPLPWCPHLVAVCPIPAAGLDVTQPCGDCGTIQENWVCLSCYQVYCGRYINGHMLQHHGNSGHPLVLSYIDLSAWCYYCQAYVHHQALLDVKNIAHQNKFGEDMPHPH
Assay: In vitro deacetylation assay, HDAC6 (GAK substrate)
Type: biochemical
Conditions: Figure 2C, in vitro data in μM
measured.property: EC50 (µM)

cpd.smiles	scale.unit	recorded.value
CS(=O)(=O)N(Cc1ccc(-c2nnc(C(F)F)o2)cn1)c1cccc(Cl)c1	µM	0.0021
O=C(NO)c1cnc(NC2(c3cccc(F)c3)CCCCC2)nc1	µM	0.0011

* * *

Tested on: RPMI-8226 lymphoblasts
Assay: MTT viability assay
Assay type: cell-based
Conditions: RPMI-8226 cells, 48 h; read-out: EC50 cytotoxicity (MTT viability)

cpd.smiles	target	EC50, nM
CC(/C=C/C(=O)NO)=C\[C@@H](C)C(=O)c1ccc(N(C)C)cc1	RPMI-8226 lymphoblasts	240
CCCCN(Cc1ccc(C(=O)NO)cc1)C(=O)Nc1ccccc1	RPMI-8226 lymphoblasts	2800
O=C(CCCCCCNC(=O)c1cnc(N(c2ccccc2)c2ccccc2)nc1)NO	RPMI-8226 lymphoblasts	2900
O=C(CCCCCCC(=O)Nc1ccc([C@H]2O[C@@H](CSc3nc(-c4ccccc4)c(-c4ccccc4)o3)C[C@@H](c3ccc(CO)cc3)O2)cc1)NO	RPMI-8226 lymphoblasts	6500

* * *

Measured IC50 of individual entries
Target: HDAC1 (Homo sapiens, UniProt Q13547)
Construct: HDAC1 1-482 Addgene; Strep-FLAG-HALO (N); made in house; host or cells: HEK293/T17
Sequence (Q13547 whole entry): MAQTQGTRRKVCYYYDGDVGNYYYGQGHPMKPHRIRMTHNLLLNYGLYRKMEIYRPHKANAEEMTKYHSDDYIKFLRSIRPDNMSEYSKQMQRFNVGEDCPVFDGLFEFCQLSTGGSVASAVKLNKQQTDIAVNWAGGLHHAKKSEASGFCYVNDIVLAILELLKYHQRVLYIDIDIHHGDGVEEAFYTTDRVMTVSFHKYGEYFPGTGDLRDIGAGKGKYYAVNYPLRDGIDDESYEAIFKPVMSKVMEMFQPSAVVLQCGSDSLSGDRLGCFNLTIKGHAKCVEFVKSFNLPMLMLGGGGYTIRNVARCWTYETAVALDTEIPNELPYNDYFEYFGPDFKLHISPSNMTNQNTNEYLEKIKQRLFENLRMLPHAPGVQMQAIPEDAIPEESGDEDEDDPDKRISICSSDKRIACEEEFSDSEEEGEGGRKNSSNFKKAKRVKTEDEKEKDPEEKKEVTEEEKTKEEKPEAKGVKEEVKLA
Test: In vitro deacetylation assay, HDAC1 (RHKK substrate)
Assay type: biochemical
Conditions: purified human HDAC1, RHK[AcK]-AMC (RHKK) substrate

compound	comparator	IC50 (µM)
O=C(CCCCCCC(=O)Nc1ccc([C@H]2O[C@@H](CSc3nc(-c4ccccc4)c(-c4ccccc4)o3)C[C@@H](c3ccc(CO)cc3)O2)cc1)NO [Tubacin]	=	15.1
CS(=O)(=O)N(Cc1ccc(-c2nnc(C(F)F)o2)cn1)c1cccc(Cl)c1 [compound 7]	>	50
CS(=O)(=O)N(Cc1ccc(C(=O)NO)cn1)c1cccc(Cl)c1 [compound 6]	=	0.281
O=C(NO)c1cnc(NC2(c3cccc(F)c3)CCCCC2)nc1 [ACY-775]	=	21.7

* * *

Measured EC50 at 48 h of individual entries
Test: MTT viability assay
Type: cell-based
Conditions: human, RPMI-8226 lymphoblasts, RPMI-8226 cells, read-out: EC50 cytotoxicity (MTT viability)
measured.property: EC50 at 48 h (µM)

molecule	comparator	recorded.value
CS(=O)(=O)N(Cc1ccc(-c2nnc(C(F)F)o2)cn1)c1cccc(Cl)c1 [compound 7]	>	50
CC(/C=C/C(=O)NO)=C\[C@@H](C)C(=O)c1ccc(N(C)C)cc1 [TSA, Trichostatin A]	=	0.237
CN1CCc2c(c3ccccc3n2Cc2ccc(C(=O)NO)cc2)C1 [Tub A, Tubastatin A]	=	21.6
CS(=O)(=O)N(Cc1ccc(C(=O)NO)cn1)c1cccc(Cl)c1 [compound 6]	=	0.998
CCCCN(Cc1ccc(C(=O)NO)cc1)C(=O)Nc1ccccc1 [Next A, Nexturastat A]	=	2.81
O=C(CCCCCCC(=O)Nc1ccc([C@H]2O[C@@H](CSc3nc(-c4ccccc4)c(-c4ccccc4)o3)C[C@@H](c3ccc(CO)cc3)O2)cc1)NO [Tubacin]	=	6.51
O=C(CCCCCCNC(=O)c1cnc(N(c2ccccc2)c2ccccc2)nc1)NO [ACY-1215, rocilinostat]	=	2.89
O=C(NO)c1cnc(NC2(c3cccc(F)c3)CCCCC2)nc1 [ACY-775]	=	8.6

* * *

Target: HDAC10 (Homo sapiens)
Construct: HDAC10 1 – 667 Open Biosystems; Strep-FLAG-HALO (N); made in house; host or cells: HEK293/T17
Sequence (Q969S8 1-667): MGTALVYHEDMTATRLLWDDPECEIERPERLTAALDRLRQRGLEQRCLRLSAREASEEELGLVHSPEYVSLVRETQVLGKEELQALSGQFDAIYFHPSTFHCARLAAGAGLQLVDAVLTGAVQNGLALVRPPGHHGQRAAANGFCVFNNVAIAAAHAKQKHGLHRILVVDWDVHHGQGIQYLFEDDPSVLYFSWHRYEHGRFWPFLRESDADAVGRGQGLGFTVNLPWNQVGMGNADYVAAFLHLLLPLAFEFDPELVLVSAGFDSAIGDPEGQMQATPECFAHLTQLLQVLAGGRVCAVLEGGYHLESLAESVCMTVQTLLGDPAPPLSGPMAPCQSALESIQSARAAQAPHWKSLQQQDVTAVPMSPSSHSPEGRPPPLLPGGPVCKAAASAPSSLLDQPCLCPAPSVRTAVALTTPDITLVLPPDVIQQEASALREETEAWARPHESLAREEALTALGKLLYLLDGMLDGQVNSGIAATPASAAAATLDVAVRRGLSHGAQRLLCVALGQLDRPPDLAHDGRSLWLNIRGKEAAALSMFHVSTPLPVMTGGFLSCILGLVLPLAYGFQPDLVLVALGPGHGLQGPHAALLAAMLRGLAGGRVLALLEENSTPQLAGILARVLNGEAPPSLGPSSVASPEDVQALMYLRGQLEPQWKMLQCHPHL
Experiment: In vitro deacetylation assay, HDAC10 (fluorescein-labeled N8-acetylspermidine, RP-HPLC)
Type: biochemical
pIC50: −log10 of the molar value.

compound	pIC50
O=C(CCCCCCNC(=O)c1cnc(N(c2ccccc2)c2ccccc2)nc1)NO [ACY-1215, rocilinostat]	7.74
